tgt: T1, human pro-myostatin (human, UniProt O14793 24-375, biotinylated (in the SPR assay))
T1 construct: Disulfide-linked homodimer; also called proGDF8 (human)
procedureDetails: SPR Biacore 8K, biotin-antigen captured
assayReadout: Kd (nM)
Note: unit nM is implicit; provide only the numeric part.

binder: Ab105 (antibody, human IgG4 S228P, kappa, V domains shown) VH: EVQLVESGGGLVQPGGSLRLSCAASGSAFSSYGMSWVRQAPGKGLELVASIGGTGATYYPDSVKGRFTISRDNAKNSLYLQMNSLRAEDTAVYYCARDLLVRFLEWGHYYGMDVWGQGTTVTVSS VL: DIVMTQSPLSLPVTPGEPASISCRSSQSLLHSSGYNFLHWYLQKPGQSPQLLIYAASSRAPGIPDRFSGSGSGTDFTLKISRVEAEDVGVYYCMHGGQGPTFGGGTKVEIKR
Kd, nM: 0.051

Now for another entry.
Lab note: Ab103 (antibody, human IgG4 S228P, kappa, V domains shown) VH: EVQLVESGGGLVQPGGSLRLSCAASGYTFSSYGMSWVRQAPGKGLELVASITGDAGRTYYPDSVKGRFTISRDNAKNSLYLQMNSLRAEDTAVYYCARDTLVRFLEWSHYYGMDVWGQGTTVTVSS VL: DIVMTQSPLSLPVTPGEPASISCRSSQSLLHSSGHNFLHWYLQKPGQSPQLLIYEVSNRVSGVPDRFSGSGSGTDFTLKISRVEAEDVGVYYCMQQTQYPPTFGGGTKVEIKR gave Kd of 0.261
